Reference source for all entries: the supplement of paper PMC6757056

Quick reference: normalized RNA/DNA level without ligand (log10) of the listed items.
B1: library; a variant is named by its letters at N, in order (parent)
chain: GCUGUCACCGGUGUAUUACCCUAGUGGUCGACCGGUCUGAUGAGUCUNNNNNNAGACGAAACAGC

- Variants of: B1
- Experimental Details: normalized RNA/DNA level without ligand (relative to sTRSVctl = 100) (log10 (% of sTRSVctl)); ligand: hypoxanthine (xanthine aptamer); higher = less ribozyme self-cleavage, higher mRNA level
- Condition: HEK293T, reporter: mCherry (pCS4076), ligand present: no
Endpoint Name: normalized RNA/DNA level without ligand (log10)

>>> test_result("GCAAAC")
1.6
>>> test_result("UAACUU")
1.9
>>> test_result("CGGGAG")
1.63
>>> test_result("GUAAUG")
1.52
>>> test_result("UGAUGG")
1.51
>>> test_result("CCGUGG")
1.23
>>> test_result("GGAUUU")
1.89
>>> test_result("AGUGUG")
1.32
>>> test_result("AGGUUA")
1.68
>>> test_result("AUACGG")
1.27
>>> test_result("UGGCCU")
2.01
>>> test_result("CUUCCA")
1.91
>>> test_result("GCAUUC")
1.81
>>> test_result("CAAAAC")
1.78
>>> test_result("ACGUGU")
1.4
>>> test_result("CAUGCC")
1.84
>>> test_result("CGUUAU")
1.75
>>> test_result("UUAUAA")
1.76
>>> test_result("CAAGAG")
1.57
>>> test_result("GUUAGA")
1.69
>>> test_result("AGGGCG")
1.57
>>> test_result("AAUCGG")
1.37
